// provenance: the supplement of paper PMC8728848

# tgt: Gal(b1-3)[Fuc(a1-4)]GlcNAc
# experiment-notes: glycan array binding signal (z-score within array); higher = stronger binding
# setup-conditions: glycan notation: IUPAC condensed, linker removed
The full list was thinned out, with the strongest signals kept by preference.
Collected glycan array binding signal (z-score) values appear next to each entry.

{"columns": ["binder", "glycan array binding signal (z-score)"],
 "data": [
  ["ConA (Canavalia ensiformis), P02866 (protein) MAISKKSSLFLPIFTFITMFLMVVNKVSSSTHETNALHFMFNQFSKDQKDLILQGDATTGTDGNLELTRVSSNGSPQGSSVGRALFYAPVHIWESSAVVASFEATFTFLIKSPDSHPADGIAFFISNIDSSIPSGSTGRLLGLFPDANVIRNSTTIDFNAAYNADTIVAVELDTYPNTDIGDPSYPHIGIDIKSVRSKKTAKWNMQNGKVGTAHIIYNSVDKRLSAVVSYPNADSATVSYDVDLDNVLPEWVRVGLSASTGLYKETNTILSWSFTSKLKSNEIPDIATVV", -0.274],
  ["Als3-41 (Candida albicans) (protein) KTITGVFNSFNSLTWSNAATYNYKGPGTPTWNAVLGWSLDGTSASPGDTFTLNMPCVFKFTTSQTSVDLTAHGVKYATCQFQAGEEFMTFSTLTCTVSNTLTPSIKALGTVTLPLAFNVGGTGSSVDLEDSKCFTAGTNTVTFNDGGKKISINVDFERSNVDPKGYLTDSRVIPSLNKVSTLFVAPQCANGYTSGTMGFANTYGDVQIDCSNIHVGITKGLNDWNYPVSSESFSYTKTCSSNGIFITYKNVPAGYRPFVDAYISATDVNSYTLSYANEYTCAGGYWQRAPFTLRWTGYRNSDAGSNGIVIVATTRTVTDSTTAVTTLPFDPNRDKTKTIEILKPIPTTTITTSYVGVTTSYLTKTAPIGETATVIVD", -0.315],
  ["SRS2 (Toxoplasma gondii), O15695 (protein) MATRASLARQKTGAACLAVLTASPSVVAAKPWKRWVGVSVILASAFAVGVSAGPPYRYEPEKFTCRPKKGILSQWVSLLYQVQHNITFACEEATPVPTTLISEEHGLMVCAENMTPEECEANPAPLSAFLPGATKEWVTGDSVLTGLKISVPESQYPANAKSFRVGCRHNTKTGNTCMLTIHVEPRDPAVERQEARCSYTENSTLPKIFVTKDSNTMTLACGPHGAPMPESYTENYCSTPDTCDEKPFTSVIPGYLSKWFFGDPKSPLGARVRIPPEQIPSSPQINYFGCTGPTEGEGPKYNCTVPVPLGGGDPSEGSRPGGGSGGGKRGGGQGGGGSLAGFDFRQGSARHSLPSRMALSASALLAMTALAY", -0.246],
  ["SLP (Clostridium difficile), Q183M8 (protein) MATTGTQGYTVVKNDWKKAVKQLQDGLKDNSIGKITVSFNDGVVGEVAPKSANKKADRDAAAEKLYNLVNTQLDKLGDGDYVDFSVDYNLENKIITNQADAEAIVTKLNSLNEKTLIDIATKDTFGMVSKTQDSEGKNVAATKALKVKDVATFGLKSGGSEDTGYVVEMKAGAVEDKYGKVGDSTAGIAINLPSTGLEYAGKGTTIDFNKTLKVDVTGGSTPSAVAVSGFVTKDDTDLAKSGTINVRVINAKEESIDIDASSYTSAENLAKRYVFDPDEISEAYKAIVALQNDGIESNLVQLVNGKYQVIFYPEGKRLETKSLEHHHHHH", -0.182],
  ["Tp0751, 83732 (protein) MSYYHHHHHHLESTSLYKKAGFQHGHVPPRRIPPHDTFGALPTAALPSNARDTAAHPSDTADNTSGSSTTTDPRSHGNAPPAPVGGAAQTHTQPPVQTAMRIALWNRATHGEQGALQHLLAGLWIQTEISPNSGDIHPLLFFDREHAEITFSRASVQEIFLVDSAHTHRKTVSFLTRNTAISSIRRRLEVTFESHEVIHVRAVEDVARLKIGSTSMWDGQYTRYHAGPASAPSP", -0.004]
]}
